Below, each entry is listed with its recorded log10 of IC50.
- Measured Target: recombinant full-length human prolyl endopeptidase (PREP) (Homo sapiens)
- Construct: To recombinant full-length human prolyl endopeptidase (PREP, R&D-Systems, 4308-SE); purchased R&D-Systems 4308-SE
- Measurement Protocol: Biochemical human prolyl endopeptidase (PREP) assay with fluorescently labelled substrate
- Test Context: substrate Z-Gly-Pro-AMC 50 μM, 32° C., 60 min; some as mean values from multiple independent determinations
Readout Name: log10 of IC50 (log10 of the value in nM)

>>> reported_value("COc1ncc(Cn2nc3n(c2=O)[C@H](C(=O)N2C[C@@H](F)[C@@H](F)C2)CCC3)cc1Cl")
0.00
>>> reported_value("N#Cc1ccc(Cn2nc3n(c2=O)C(C(=O)N2CCCC2)CCC3)cn1 (racemic)")
1.18
>>> reported_value("O=C(C1CC(C(F)(F)F)Cc2nn(Cc3ccc(C(F)(F)F)nc3)c(=O)n21)N1CC[C@H](F)C1 (mixture of isomers) [Example 236]")
0.15
>>> reported_value("O=C(C1CC(C(F)(F)F)Cc2nn(Cc3ccc(C(F)(F)F)nc3)c(=O)n21)N1CC[C@H](F)C1 (mixture of isomers) [Example 235]")
0.83
>>> reported_value("O=C(C1C(C(F)(F)F)CCc2nn(Cc3ccc(Cl)cn3)c(=O)n21)N1C[C@@H](F)[C@@H](F)C1 (mixture of isomers) [Example 300]")
1.28
>>> reported_value("O=C(C1CCCc2nn(Cc3ccc4c(c3)CCCC4)c(=O)n21)N1CCCC1 (racemic)")
-0.57
>>> reported_value("CC1Cc2nn(Cc3ccc(C(F)(F)F)nc3)c(=O)n2C(C(=O)N2CC(O)C2)C1 (racemic) [Example 134]")
1.90
>>> reported_value("CC1Cc2nn(Cc3ccc(C(F)(F)F)nc3)c(=O)n2C(C(=O)N2C[C@@H](F)[C@@H](F)C2)C1 (single isomer, unassigned) [Example 337]")
0.88
>>> reported_value("O=C([C@@H]1CCCc2nn(Cc3cc(C(F)(F)F)nc4ccccc34)c(=O)n21)N1CC(O)C1")
1.22
>>> reported_value("Cc1ccc(Cn2nc3n(c2=O)[C@H](C(=O)N2CC[C@H](F)C2)CCC3)cc1")
-0.49
>>> reported_value("O=C(C1CCc2nn(Cc3ccc(Cl)nc3)c(=O)n21)N1C[C@@H](F)[C@@H](F)C1 (mixture of isomers)")
0.80
>>> reported_value("O=C([C@@H]1CCCc2nn(Cc3cncc(C(F)(F)F)c3)c(=O)n21)N1C[C@@H](F)[C@@H](F)C1")
0.36
>>> reported_value("O=C(C1C(C(F)(F)F)CCc2nn(Cc3ccc(Cl)cn3)c(=O)n21)N1CC(F)C1 (racemic) [Example 310]")
1.18
>>> reported_value("O=C(C1C(C(F)(F)F)CCc2nn(Cc3ccc(C(F)(F)F)nc3)c(=O)n21)N1CC[C@H](F)C1 (single isomer, unassigned) [Example 286]")
1.99
>>> reported_value("Cn1c(Cn2nc3n(c2=O)C(C(=O)N2CCCC2)CCC3)nc2ccccc21 (racemic)")
0.30
>>> reported_value("NS(=O)(=O)c1ccc(Cn2nc3n(c2=O)C(C(=O)N2CCCC2)CCC3)cc1 (racemic)")
0.08
>>> reported_value("O=C([C@@H]1CCCc2nn(Cc3cc(C(F)(F)F)c(Cl)cn3)c(=O)n21)N1CC(O)C1")
2.13
>>> reported_value("O=C([C@@H]1CCCc2nn(Cc3ccnc(C(F)(F)F)c3F)c(=O)n21)N1CCC(F)(F)C1")
0.45
>>> reported_value("O=C([C@@H]1CCCc2nn(Cc3ncc(F)cc3F)c(=O)n21)N1CC(F)C1")
0.89
>>> reported_value("O=C([C@@H]1CCCc2nn(Cc3ncccc3Cl)c(=O)n21)N1CC(F)(F)C1")
1.45
>>> reported_value("O=C(C1CCCc2nn(Cc3ccc(Cl)c(Cl)c3)c(=O)n21)N1CCCC1 (racemic)")
-0.26
>>> reported_value("O=C(C1C(C(F)(F)F)CCc2nn(Cc3ncc(Cl)cc3F)c(=O)n21)N1C[C@@H](F)[C@@H](F)C1 (single isomer, unassigned) [Example 293]")
1.93
>>> reported_value("O=C([C@@H]1CCCc2nn(Cc3ncc(Cl)cc3F)c(=O)n21)N1C[C@@H](F)[C@@H](F)C1")
-0.34
>>> reported_value("O=C([C@@H]1CCCc2nn(Cc3nc(C(F)(F)F)no3)c(=O)n21)N1CC(F)(F)C1")
2.04
>>> reported_value("CC1Cc2nn(Cc3ccc(C(F)(F)F)nc3)c(=O)n2C(C(=O)N2CC(O)C2)C1 (single isomer, unassigned) [Example 135]")
1.54
>>> reported_value("COc1ccc(Cn2nc3n(c2=O)[C@H](C(=O)N2CC[C@H](F)C2)CCC3)cn1")
0.04
>>> reported_value("O=C(C1CCC(C(F)(F)F)c2nn(Cc3ccc(C(F)(F)F)nc3)c(=O)n21)N1C[C@@H](F)[C@@H](F)C1 (mixture of isomers)")
0.30
>>> reported_value("CC1Cc2nn(Cc3ccc(C(F)(F)F)nc3)c(=O)n2C(C(=O)N2CCC(F)(F)C2)C1 (racemic)")
0.59

----------
- Measured Target: recombinant full-length human prolyl endopeptidase (PREP) (Homo sapiens, UniProt P48147)
- Construct: To recombinant full-length human prolyl endopeptidase (PREP, R&D-Systems, 4308-SE); purchased R&D-Systems 4308-SE
- Sequence (P48147 1-710): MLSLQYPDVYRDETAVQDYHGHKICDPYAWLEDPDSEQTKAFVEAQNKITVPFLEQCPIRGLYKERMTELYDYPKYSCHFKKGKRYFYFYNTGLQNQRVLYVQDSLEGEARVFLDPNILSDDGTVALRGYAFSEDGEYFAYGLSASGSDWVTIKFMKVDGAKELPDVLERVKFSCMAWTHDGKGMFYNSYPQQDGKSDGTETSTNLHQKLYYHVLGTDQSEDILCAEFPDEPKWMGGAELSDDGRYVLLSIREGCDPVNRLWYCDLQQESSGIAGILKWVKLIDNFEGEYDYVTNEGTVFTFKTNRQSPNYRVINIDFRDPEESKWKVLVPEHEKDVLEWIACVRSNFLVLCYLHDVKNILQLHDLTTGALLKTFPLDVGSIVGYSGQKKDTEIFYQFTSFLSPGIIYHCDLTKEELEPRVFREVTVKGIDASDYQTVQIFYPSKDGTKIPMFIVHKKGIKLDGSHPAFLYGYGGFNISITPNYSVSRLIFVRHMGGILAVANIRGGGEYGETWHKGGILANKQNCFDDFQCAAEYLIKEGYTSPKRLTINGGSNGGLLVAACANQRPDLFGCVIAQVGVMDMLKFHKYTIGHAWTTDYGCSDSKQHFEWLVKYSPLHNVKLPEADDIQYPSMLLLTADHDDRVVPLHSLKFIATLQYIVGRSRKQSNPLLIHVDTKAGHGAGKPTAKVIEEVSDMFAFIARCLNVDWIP
- Measurement Protocol: Biochemical human prolyl endopeptidase (PREP) assay with fluorescently labelled substrate
- Test Context: substrate Z-Gly-Pro-AMC 50 μM, 32° C., 60 min; some as mean values from multiple independent determinations
pIC50: −log10 of the molar value.
Readout Name: pIC50

>>> reported_value("O=C([C@@H]1CCCc2nn(Cc3ccc(Cl)c(F)c3)c(=O)n21)N1CC(F)C1")
9.65
>>> reported_value("O=C([C@@H]1CCCc2nn(Cc3cnc(C(F)(F)F)c(Cl)c3)c(=O)n21)N1CCC(F)(F)C1")
8.70
>>> reported_value("O=C([C@@H]1CCCc2nn(CC3CCC(C(F)(F)F)CC3)c(=O)n21)N1CCCC1 (single isomer, unassigned) [Example 185]")
9.43
>>> reported_value("Cc1ccc(Cn2nc3n(c2=O)[C@H](C(=O)N2CC(F)(F)C(F)(F)C2)CCC3)cc1")
7.90

----------
- Measured Target: recombinant full-length human prolyl endopeptidase (PREP) (Homo sapiens)
- Construct: To recombinant full-length human prolyl endopeptidase (PREP, R&D-Systems, 4308-SE)
- Measurement Protocol: Biochemical human prolyl endopeptidase (PREP) assay with fluorescently labelled substrate
- Test Context: substrate Z-Gly-Pro-AMC 50 μM, 32° C., 60 min; some as mean values from multiple independent determinations
pIC50: −log10 of the molar value.
Recorded pIC50 values for a group of molecules are listed next.
Readout Name: pIC50

>>> reported_value("Cc1ccc(Cn2nc3n(c2=O)[C@H](C(=O)N2CCCC2)CCC3)cc1")
9.14
>>> reported_value("Cc1ccc(Cn2nc3n(c2=O)[C@H](C(=O)N2CCSC2)CCC3)cc1")
9.82
>>> reported_value("O=C([C@@H]1CCCc2nn(Cc3ccc(C(F)(F)F)c(F)c3)c(=O)n21)N1CC[C@H](F)C1")
9.37
>>> reported_value("Cc1cc(Cn2nc3n(c2=O)C(C(=O)N2CC(F)C2)CCC3)on1 (racemic)")
7.74
>>> reported_value("O=C(C1CCc2nn(Cc3ccc(F)c(Cl)c3)c(=O)n21)N1CC(F)C1 (racemic)")
8.20
>>> reported_value("O=C(C1CC(C(F)(F)F)Cc2nn(Cc3ccc(Cl)nc3)c(=O)n21)N1C[C@@H](F)[C@@H](F)C1 (single isomer, unassigned) [Example 248]")
7.92
>>> reported_value("O=C([C@@H]1CCCc2nn(Cc3ccc(C(F)F)nc3)c(=O)n21)N1CC[C@H](F)C1")
8.92
>>> reported_value("O=C([C@@H]1CCCc2nn(Cc3cc(C(F)(F)F)c(Cl)cn3)c(=O)n21)N1CC(F)C1")
8.59
>>> reported_value("O=C(C1CCc2nn(Cc3ccc(Cl)nc3)c(=O)n21)N1CCC(F)(F)C1 (racemic)")
7.66
>>> reported_value("O=C([C@@H]1CCCc2nn(Cc3ccc(C(F)(F)F)c(F)c3)c(=O)n21)N1C[C@@H](F)[C@@H](F)C1")
9.61
>>> reported_value("Cc1cc(Cn2nc3n(c2=O)C(C(=O)N2CCCC2)CCC3)no1 (racemic)")
7.80
>>> reported_value("Cc1ccc(Cn2nc3n(c2=O)[C@H](C(=O)N2CC[S+]([O-])C2)CCC3)cc1 (single isomer, unassigned) [Example 193]")
9.38
